# Assayed system: HDAC6 enzyme (Homo sapiens, UniProt Q9UBN7)
# Construct: transducing full length HDAC1 and HDAC6 genes into Sf-9 insect cells; GST; purchased SignalChem; host or cells: Sf-9 insect cells
# Assay method text: HDAC1/6 Enzyme Inhibitory Assay (HDAC-Glo I/II Assay kit), HDAC6
# Assay type: biochemical
# Assay conditions: 1 μM test compound; wells without enzyme = 100% inhibition; read-out: HDAC6 inhibitory rate (%) (1 μM)
Experimental endpoint: inhibition at 1 µM (%)
Just the number in %, nothing appended.

O=C(N[C@H]1CCOC[C@@H]1N1Cc2ccc(-c3noc(C(F)(F)F)n3)cc2C1=O)[C@H]1CC1(F)F
99
CN1CCCCC1C(=O)N[C@@H]1CCCC[C@H]1N1Cc2ccc(-c3noc(C(F)(F)F)n3)cc2C1=O (stereo partly drawn)
96
O=C(N[C@@H]1CCCC[C@H]1N1Cc2ccc(-c3noc(C(F)(F)F)n3)cc2C1=O)N1CC2CCC(C1)O2
99
O=C(Cc1ccc(F)cc1)N1CC(N2Cc3ncc(-c4noc(C(F)(F)F)n4)cc3C2=O)C1
92
O=C1c2ccc(-c3noc(C(F)(F)F)n3)cc2CN1[C@H]1CCNC[C@H]1c1ccccc1 (relative stereo)
78

Enquiry: Using the record for O=C(Cc1ccc(F)cc1)N1CCC(N2Cc3ncc(-c4noc(C(F)(F)F)n4)cc3C2=O)C1 (stereo not drawn) , report its inhibition at 1 µM.
Return: 86

Enquiry: Entry under review: O=C(N[C@H]1CCOC[C@@H]1N1Cc2ccc(-c3noc(C(F)(F)F)n3)cc2C1=O)[C@@H]1CC1(F)F . Reported inhibition at 1 µM?
Return: 98

Enquiry: Reported inhibition at 1 µM for O=C(N[C@@H]1CCCC[C@H]1N1Cc2ccc(-c3noc(C(F)(F)F)n3)cc2C1=O)[C@H]1CC1(F)F : what is it?
Return: 100

Enquiry: Quick check: inhibition at 1 µM of Cn1cncc1C(=O)N[C@@H]1CCCC[C@H]1N1Cc2ccc(-c3noc(C(F)(F)F)n3)cc2C1=O ?
Return: 99

###

Entries and their measured inhibition at 1 µM follow.
# Assayed system: HDAC6 enzyme (Homo sapiens, UniProt Q9UBN7)
# Construct: transducing full length HDAC1 and HDAC6 genes into Sf-9 insect cells; GST; purchased SignalChem; host or cells: Sf-9 insect cells
# Assay method text: HDAC1/6 Enzyme Inhibitory Assay (HDAC-Glo I/II Assay kit), HDAC6
# Format: biochemical
# Assay conditions: 1 μM test compound; wells without enzyme = 100% inhibition; read-out: HDAC6 inhibitory rate (%) (1 μM)
# unit: % | format: bare number

O=C(N[C@@H]1CCCC[C@H]1N1Cc2ccc(-c3noc(C(F)(F)F)n3)cc2C1=O)C1CC1(F)F (stereo partly shown) [Example 105]
100
O=C1NCCC1C(=O)N[C@@H]1CCCC[C@H]1N1Cc2ccc(-c3noc(C(F)(F)F)n3)cc2C1=O (stereo partly shown) [Example 108]
97
O=C(N[C@@H]1CCCC[C@H]1N1Cc2ccc(-c3noc(C(F)(F)F)n3)cc2C1=O)N1CC2(COC2)C1 [Example 161]
76

// switching to the query compound
Enquiry: Using the record for Cc1cc([C@@H]2CNCC[C@H]2N2Cc3ccc(-c4noc(C(F)(F)F)n4)cc3C2=O)ccc1F (relative stereo) [Example 49] , report its inhibition at 1 µM.
Return: 100

###

# Assayed system: HDAC1 enzyme (Homo sapiens)
# Construct: transducing full length HDAC1 and HDAC6 genes into Sf-9 insect cells; GST; purchased SignalChem; host or cells: Sf-9 insect cells
# Assay method text: HDAC1/6 Enzyme Inhibitory Assay (HDAC-Glo I/II Assay kit), HDAC1
# Type: biochemical
# Assay conditions: 1 μM test compound; wells without enzyme = 100% inhibition; read-out: HDAC1 inhibitory rate (%) (1 μM)
# Experimental: HDAC1/6 Enzyme Inhibitory Assay HDAC1 enzyme and HDAC6 enzyme each prepared by transducing full length HDAC1 and HDAC6 genes into Sf-9 insect cells and purifying by GST affinity column were purchased from SignalChem. Using these enzymes, HDAC1 and/or HDAC6 enzyme inhibitory activities of the compound of the present invention were evaluated. […] After reacting at room temperature for 20 min, luminescence level was measured using plate reader Envision (PerkinElmer). […]
Experimental endpoint: inhibition at 1 µM (%)
# output: bare number, implied unit %

CC(=O)N1CCC(N2Cc3ncc(-c4noc(C(F)(F)F)n4)cc3C2=O)CC1
25
O=C1c2cc(-c3noc(C(F)(F)F)n3)ccc2CN1[C@@H]1COCC[C@H]1O
11
O=C1c2cc(-c3noc(C(F)(F)F)n3)ccc2CN1[C@@H]1CC[C@@H]1Cc1ccccc1 (relative stereo)
37
O=C1c2cc(-c3noc(C(F)(F)F)n3)ccc2CN1[C@H]1CCNC[C@H]1c1ccccc1
49
N#CC12CC(C(=O)N[C@@H]3CCCC[C@H]3N3Cc4ccc(-c5noc(C(F)(F)F)n5)cc4C3=O)(C1)C2
11
CC(=O)N1CC[C@H](N2Cc3ccc(-c4noc(C(F)(F)F)n4)cc3C2=O)[C@H](c2ccccc2)C1
8
CC(C)(C)OC(=O)N1CC[C@H](N2Cc3ccc(-c4noc(C(F)(F)F)n4)cc3C2=O)[C@H](c2ccccc2)C1
0
O=C1CC[C@@H](C(=O)N[C@@H]2CCCC[C@H]2N2Cc3ccc(-c4noc(C(F)(F)F)n4)cc3C2=O)N1
-3
O=C(Cc1ccc(F)cc1)N1CCCC(N2Cc3ncc(-c4noc(C(F)(F)F)n4)cc3C2=O)C1 (stereo not shown)
37
O=C(N[C@@H]1CCCC[C@H]1N1Cc2ccc(-c3noc(C(F)(F)F)n3)cc2C1=O)[C@@H]1CCCO1
5

Enquiry: # get_value(readout='inhibition at 1 µM', item= O=C1c2cc(-c3noc(C(F)(F)F)n3)ccc2CN1[C@H]1CCc2ccccc21 )
Return: 6

Enquiry: Fill in the blank: the reported inhibition at 1 µM of O=C(N[C@H]1CCOC[C@@H]1N1Cc2ccc(-c3noc(C(F)(F)F)n3)cc2C1=O)[C@H]1CCOC1 is ____.
Return: 10

Enquiry: Data request, read-out inhibition at 1 µM, for CC(C)(C)OC(=O)N[C@@H]1CCCC[C@H]1N1Cc2ccc(-c3noc(C(F)(F)F)n3)cc2C1=O (relative stereo) [Example 6]
Return: 9

###

# Assayed system: HDAC1 enzyme (Homo sapiens, UniProt Q13547)
# Construct: transducing full length HDAC1 and HDAC6 genes into Sf-9 insect cells; GST; purchased SignalChem; host or cells: Sf-9 insect cells
# Sequence (Q13547 whole entry): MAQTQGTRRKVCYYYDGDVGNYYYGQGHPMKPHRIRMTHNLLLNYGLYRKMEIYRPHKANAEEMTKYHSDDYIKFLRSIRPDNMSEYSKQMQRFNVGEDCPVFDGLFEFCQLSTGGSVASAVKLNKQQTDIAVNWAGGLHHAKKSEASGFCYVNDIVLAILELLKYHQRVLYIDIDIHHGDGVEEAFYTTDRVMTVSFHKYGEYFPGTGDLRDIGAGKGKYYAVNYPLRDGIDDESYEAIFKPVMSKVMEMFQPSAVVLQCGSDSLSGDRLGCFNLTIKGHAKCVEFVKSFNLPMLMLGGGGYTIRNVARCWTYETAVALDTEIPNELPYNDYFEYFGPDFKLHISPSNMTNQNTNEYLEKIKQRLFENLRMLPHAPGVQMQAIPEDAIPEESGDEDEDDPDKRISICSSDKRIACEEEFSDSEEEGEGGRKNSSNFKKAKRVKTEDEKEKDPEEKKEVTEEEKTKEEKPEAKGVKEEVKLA
# Assay method text: HDAC1/6 Enzyme Inhibitory Assay (HDAC-Glo I/II Assay kit), HDAC1
# Format: biochemical
# Assay conditions: 1 μM test compound; wells without enzyme = 100% inhibition; read-out: HDAC1 inhibitory rate (%) (1 μM)
Experimental endpoint: inhibition at 1 µM (%)
Answer with a number only, understood to be in %.

// worked examples, inhibition at 1 µM included
O=C1CC(C(=O)N[C@@H]2CCCCC2N2Cc3ccc(-c4noc(C(F)(F)F)n4)cc3C2=O)CN1 (stereo in doubt) [Example 131]
0
CC(C)(C)OC(=O)N1CC[C@H](N2Cc3cc(-c4noc(C(F)(F)F)n4)ccc3C2=O)[C@H](c2ccccc2)C1 (relative stereo) [Example 78]
-3

Enquiry: Param readout = inhibition at 1 µM; param system = HDAC1 enzyme (Homo sapiens, UniProt Q13547); param query = O=C1CCCN1[C@@H]1CCCC[C@H]1N1Cc2ncc(-c3noc(C(F)(F)F)n3)cc2C1=O [Example 186] ; response: value
Return: 26

###

# Assayed system: HDAC6 enzyme (Homo sapiens, UniProt Q9UBN7)
# Construct: transducing full length HDAC1 and HDAC6 genes into Sf-9 insect cells; GST; purchased SignalChem; host or cells: Sf-9 insect cells
# Assay method text: HDAC1/6 Enzyme Inhibitory Assay (HDAC-Glo I/II Assay kit), HDAC6
# Assay type: biochemical
# Assay conditions: 1 μM test compound; wells without enzyme = 100% inhibition; read-out: HDAC6 inhibitory rate (%) (1 μM)
Below, each of the molecules is paired with its reported inhibition at 1 µM value.
The reply should be a number in %, with the unit left off.

Enquiry: Please give the measured inhibition at 1 µM for this molecule: CC(C)(C)OC(=O)N1CC[C@@H](N2Cc3ncc(-c4noc(C(F)(F)F)n4)cc3C2=O)[C@H](c2ccccc2)C1
Return: 98

Enquiry: Name the reported inhibition at 1 µM value associated with the molecule O=C(N[C@@H]1CCOC[C@H]1N1Cc2ccc(-c3noc(C(F)(F)F)n3)cc2C1=O)C1CCOC1 (stereo partly drawn)
Return: 99

Enquiry: Suppose we examine the molecule O=C1c2cc(-c3noc(C(F)(F)F)n3)ccc2CN1[C@@H]1CCCC[C@H]1NC(=O)C1(CO)CC1 ; what inhibition at 1 µM value has been reported?
Return: 100

###

Reported inhibition at 1 µM values follow for various compounds
# Assayed system: HDAC6 enzyme (Homo sapiens)
# Construct: transducing full length HDAC1 and HDAC6 genes into Sf-9 insect cells; GST; purchased SignalChem; host or cells: Sf-9 insect cells
# Sequence (Q9UBN7 1-1215): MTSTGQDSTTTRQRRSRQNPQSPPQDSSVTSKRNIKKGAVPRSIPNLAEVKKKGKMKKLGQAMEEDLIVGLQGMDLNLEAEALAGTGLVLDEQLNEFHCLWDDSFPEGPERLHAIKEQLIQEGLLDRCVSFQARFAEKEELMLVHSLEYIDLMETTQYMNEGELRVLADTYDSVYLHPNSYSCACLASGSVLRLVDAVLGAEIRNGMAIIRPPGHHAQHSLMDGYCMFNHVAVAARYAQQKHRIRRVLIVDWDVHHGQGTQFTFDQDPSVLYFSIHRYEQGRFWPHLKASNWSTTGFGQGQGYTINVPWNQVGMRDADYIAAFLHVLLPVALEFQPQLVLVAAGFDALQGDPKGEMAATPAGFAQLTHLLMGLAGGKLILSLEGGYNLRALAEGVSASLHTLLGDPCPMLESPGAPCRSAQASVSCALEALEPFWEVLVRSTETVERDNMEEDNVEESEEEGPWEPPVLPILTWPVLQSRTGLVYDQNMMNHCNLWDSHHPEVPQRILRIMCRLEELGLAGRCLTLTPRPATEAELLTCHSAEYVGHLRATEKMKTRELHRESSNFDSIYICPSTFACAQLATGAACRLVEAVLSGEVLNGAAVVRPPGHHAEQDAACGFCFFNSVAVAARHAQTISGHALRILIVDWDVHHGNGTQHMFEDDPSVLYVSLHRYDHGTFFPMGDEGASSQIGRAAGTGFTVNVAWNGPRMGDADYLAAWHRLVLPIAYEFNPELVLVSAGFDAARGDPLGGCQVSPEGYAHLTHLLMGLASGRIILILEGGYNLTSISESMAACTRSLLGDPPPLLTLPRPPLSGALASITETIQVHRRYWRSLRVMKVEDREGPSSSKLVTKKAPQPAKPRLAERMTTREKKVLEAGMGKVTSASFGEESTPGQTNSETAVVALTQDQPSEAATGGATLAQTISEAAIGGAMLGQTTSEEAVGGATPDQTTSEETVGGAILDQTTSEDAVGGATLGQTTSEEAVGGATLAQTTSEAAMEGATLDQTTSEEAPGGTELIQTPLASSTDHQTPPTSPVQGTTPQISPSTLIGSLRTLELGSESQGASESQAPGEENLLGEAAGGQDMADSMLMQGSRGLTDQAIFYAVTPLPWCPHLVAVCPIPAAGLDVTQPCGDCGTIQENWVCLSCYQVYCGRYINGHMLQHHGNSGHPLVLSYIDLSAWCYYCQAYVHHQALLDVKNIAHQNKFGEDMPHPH
# Assay method text: HDAC1/6 Enzyme Inhibitory Assay (HDAC-Glo I/II Assay kit), HDAC6
# Format: biochemical
# Assay conditions: 1 μM test compound; wells without enzyme = 100% inhibition; read-out: HDAC6 inhibitory rate (%) (1 μM)

Before answering, review these 5 worked examples.
CC(C)(C)OC(=O)N1C[C@@H](N2Cc3ccc(-c4noc(C(F)(F)F)n4)cc3C2=O)[C@H](c2ccccc2)C1 (relative stereo) [Example 2]
98%
CC(C)N(C(=O)N[C@@H]1CCCC[C@H]1N1Cc2ccc(-c3noc(C(F)(F)F)n3)cc2C1=O)C(C)C [Example 166]
100%
CC(=O)N1CC[C@@H](c2ccccc2)[C@H](N2Cc3cc(-c4noc(C(F)(F)F)n4)ccc3C2=O)C1 (relative stereo) [Example 73]
77%
CC(C)(C)OC(=O)N[C@@H]1CCCC[C@H]1N1Cc2ccc(-c3noc(C(F)(F)F)n3)cc2C1=O (relative stereo) [Example 6]
95%
O=C1c2cc(-c3noc(C(F)(F)F)n3)ccc2CN1[C@@H]1CCNC[C@H]1c1ccc(F)c(Cl)c1 (relative stereo) [Example 54]
100%

Enquiry: Please give the measured inhibition at 1 µM for this compound: O=C(c1ccccc1)N1CC(N2Cc3ncc(-c4noc(C(F)(F)F)n4)cc3C2=O)C1 [Example 76]
Return: 85%

Enquiry: Which value of inhibition at 1 µM has been reported for O=C1c2cc(-c3noc(C(F)(F)F)n3)ccc2CN1[C@@H]1CNC[C@H]1c1ccccc1 (relative stereo) [Example 3] in the records?
Return: 96%

Enquiry: Recorded inhibition at 1 µM of O=C(N[C@@H]1CCCC[C@H]1N1Cc2ccc(-c3noc(C(F)(F)F)n3)cc2C1=O)C1CC1 [Example 32] , please.
Return: 99%

Enquiry: Which inhibition at 1 µM value is on record for CC1(C(=O)N[C@@H]2CCCC[C@H]2N2Cc3ccc(-c4noc(C(F)(F)F)n4)cc3C2=O)CCC1 [Example 174] ?
Return: 90%

Enquiry: Using the record for O=C(Cc1cc(=O)[nH][nH]1)N[C@@H]1CCCC[C@H]1N1Cc2ccc(-c3noc(C(F)(F)F)n3)cc2C1=O [Example 117] , report its inhibition at 1 µM.
Return: 97%

Enquiry: Any idea what its inhibition at 1 µM is? The compound is O=C(c1ccccc1)N1CCC(N2Cc3ncc(-c4noc(C(F)(F)F)n4)cc3C2=O)CC1 [Example 67]
Return: 99%

Enquiry: Given the compound CC1(C(=O)N[C@@H]2COCC[C@H]2N2Cc3ccc(-c4noc(C(F)(F)F)n4)cc3C2=O)COC1 [Example 83] , what is its reported inhibition at 1 µM?
Return: 101%
